Entry source: patent US12371454B2

Field: IC50. Provide a value for each of the compounds that follow.
Assay target: Kras and SOS1 (biotin-tagged human Kras loaded with GDP, His-tagged human SOS1) (Homo sapiens, UniProt P01116, G12D)
Construct: made in house; host or cells: E. coli (stated for Kras only)
Sequence (P01116 1-188 isoform P01116-2 G12D): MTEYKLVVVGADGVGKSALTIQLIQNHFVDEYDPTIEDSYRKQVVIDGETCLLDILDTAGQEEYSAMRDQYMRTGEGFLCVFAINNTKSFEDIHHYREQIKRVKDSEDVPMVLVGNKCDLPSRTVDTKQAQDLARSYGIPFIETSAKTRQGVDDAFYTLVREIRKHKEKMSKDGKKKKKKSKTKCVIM
Assay text: Protein-protein interaction inhibition between Kras and SOS1 (KrasGl2D-SOS PPI) using AlphaScreen
Format: binding
Assay setup: AlphaScreen; biotin-tagged human Kras loaded with GDP, His-tagged human SOS1; read-out: KRAS G12D-SOS PPI IC50
Starred links: 1 amine or outer side, 2 acyl side, 3 side chain; linkers in the order of their positions; H or OH if unused. Positions of bridges follow the written chain, without caps; N, C: chain ends. Non-standard residues stand in square brackets, D forms with d. Residues, ends and D or L forms follow the SMILES beside them. *: point of attachment. hPhe(3,5-F2-4-CF3) = N[C@@H](CCc1cc(F)c(C(F)(F)F)c(F)c1)C(=O)O; hPhe(3-Cl-4-CF3) = N[C@@H](CCc1ccc(C(F)(F)F)c(Cl)c1)C(=O)O; hPhe(4-CF3) = N[C@@H](CCc1ccc(C(F)(F)F)cc1)C(=O)O; NMePhe(4-Cl) = CN[C@@H](Cc1ccc(Cl)cc1)C(=O)O; X51 = O=C([C@H](Cc1cc(F)cc(I)c1)N[*:1])[*:2]; NMeNle(6-CHF2) = CN[C@@H](CCCCC(F)F)C(=O)O; NMePhe(4-F) = CN[C@@H](Cc1ccc(F)cc1)C(=O)O; X79 = CC(C)CCOC[C@H](CC(=O)[*:2])N[*:1]; Phe(3-I) = N[C@@H](Cc1cccc(I)c1)C(=O)O; NMeY = CN[C@@H](Cc1ccc(O)cc1)C(=O)O; NMeCha = CN[C@@H](CC1CCCCC1)C(=O)O; NMeChg = CN[C@H](C(=O)O)C1CCCCC1; NMeF = CN[C@@H](Cc1ccccc1)C(=O)O; NMeI = CC[C@H](C)[C@H](NC)C(=O)O; NMeD = CN[C@@H](CC(=O)O)C(=O)O; AllylGly = C=CC[C@H](N)C(=O)O; NMeL = CN[C@@H](CC(C)C)C(=O)O; NMeV = CN[C@H](C(=O)O)C(C)C; d(β3hA) = C[C@@H](N)CC(=O)O; NMeAbu = CC[C@H](NC)C(=O)O; dNMeS = CN[C@H](CO)C(=O)O; NMeA = CN[C@@H](C)C(=O)O; NMeAib = CNC(C)(C)C(=O)O; Nle = CCCC[C@H](N)C(=O)O; Piperidide = C1CCN(*)CC1; Pyrrolidide = C1CCN(*)C1; Ac5c = NC1(C(=O)O)CCCC1; Aze = O=C(O)[C@@H]1CCN1; Ac4c = NC1(C(=O)O)CCC1; Sar = CNCC(=O)O
Please respond with the number in nM and leave the unit unwritten.

Exercise: Give the value of IC50 reported for the following: CC[C@H](C)[C@@H]1NC(=O)[C@H](CCCCC(F)F)N(C)C(=O)C[C@@H](C(=O)N2CCCCC2)N(C)C(=O)[C@H](C2CCCCC2)N(C)C(=O)C2(CCCC2)NC(=O)[C@@H]2CCCN2C(=O)[C@H](CCc2ccc(C(F)(F)F)c(Cl)c2)NC(=O)CN(C)C(=O)[C@H](CC2CCCCC2)N(C)C(=O)CN(C)C(=O)CN(C)C1=O [Compound 425] ([NMeNle(6-CHF2)]I[Sar][Sar][NMeCha][Sar][hPhe(3-Cl-4-CF3)]P[Ac5c][NMeChg][NMeD]-Piperidide; lactam N-11)
Solution: 0.57

Exercise: Look up IC50 of CC[C@H](C)[C@@H]1NC(=O)[C@H](C)N(C)C(=O)C[C@@H](C(=O)N2CCCCC2)N(C)C(=O)[C@H](C(C)C)N(C)C(=O)C2(CCCC2)NC(=O)[C@@H]2CCCN2C(=O)[C@H](CCc2ccc(C(F)(F)F)c(Cl)c2)NC(=O)[C@H]2CCCN2C(=O)[C@H](Cc2ccc(F)cc2)N(C)C(=O)[C@@H]2CCCN2C(=O)CN(C)C1=O [Compound 1725] ([NMeA]I[Sar]P[NMePhe(4-F)][dP][hPhe(3-Cl-4-CF3)]P[Ac5c][NMeV][NMeD]-Piperidide; lactam N-11) and report it.
Solution: 23

Exercise: Determine its reported IC50: CC[C@H](C)[C@@H]1NC(=O)[C@H](CC(C)C)N(C)C(=O)C[C@@H](C(=O)N2CCCC2)N(C)C(=O)[C@H](C2CCCCC2)N(C)C(=O)C2(CCC2)NC(=O)[C@@H]2CCCN2C(=O)[C@H](CCc2cc(F)c(C(F)(F)F)c(F)c2)NC(=O)CN(C)C(=O)[C@H](CC2CCCCC2)N(C)C(=O)CN(C)C(=O)CN(C)C1=O [Compound 1165] ([NMeL]I[Sar][Sar][NMeCha][Sar][hPhe(3,5-F2-4-CF3)]P[Ac4c][NMeChg][NMeD]-Pyrrolidide; lactam N-11)
Solution: 0.73

Exercise: Complete the entry with IC50 for CC[C@H](C)[C@@H]1NC(=O)[C@H](CC(C)C)N(C)C(=O)C[C@@H](C(=O)N(C)C)N(C)C(=O)[C@H]([C@@H](C)CC)N(C)C(=O)C2(CCCC2)NC(=O)[C@@H]2CCCN2C(=O)[C@H](CCc2ccc(C(F)(F)F)c(Cl)c2)NC(=O)CN(C)C(=O)[C@H](CC2CCCCC2)N(C)C(=O)[C@@H]2CCN2C(=O)[C@H](C)N(C)C1=O [Compound 1858] ([NMeL]I[NMeA][Aze][NMeCha][Sar][hPhe(3-Cl-4-CF3)]P[Ac5c][NMeI][NMeD]-NMe2; lactam N-11)
Solution: 1.1

Exercise: Tell us which IC50 value is on record for CC[C@H](C)[C@@H]1NC(=O)[C@H](CC(C)C)N(C)C(=O)C[C@@H](C(=O)N2CCCCC2)N(C)C(=O)[C@H](C(C)C)N(C)C(=O)C2(CCCC2)NC(=O)[C@@H](CO)N(C)C(=O)[C@H](CCc2ccc(C(F)(F)F)c(Cl)c2)NC(=O)CN(C)C(=O)[C@H](CC2CCCCC2)N(C)C(=O)[C@@H]2CCN2C(=O)[C@H](C)N(C)C1=O [Compound 1444] ([NMeL]I[NMeA][Aze][NMeCha][Sar][hPhe(3-Cl-4-CF3)][dNMeS][Ac5c][NMeV][NMeD]-Piperidide; lactam N-11)
Solution: 8.8

Exercise: Assign IC50 to the following record: CC[C@H](C)[C@@H]1NC(=O)[C@H](CC(C)C)N(C)C(=O)C[C@@H](COCCC(C)C)NC(=O)[C@H](C(C)C)N(C)C(=O)C2(CCCC2)NC(=O)[C@@H]2CCCN2C(=O)[C@H](CCc2ccc(C(F)(F)F)c(Cl)c2)NC(=O)CN(C)C(=O)[C@H](CC2CCCCC2)N(C)C(=O)CN(C)C(=O)CN(C)C1=O [Compound 992] (cyclo([Ac5c][NMeV][X79][NMeL]I[Sar][Sar][NMeCha][Sar][hPhe(3-Cl-4-CF3)]P))
Solution: 180

Exercise: // Input: CC[C@H](C)[C@@H]1NC(=O)[C@H](C)N(C)C(=O)C[C@@H](C)NC(=O)[C@H](CC(C)C)N(C)C(=O)[C@H](Cc2ccccc2)N(C)C(=O)[C@@H]2CCN2C(=O)[C@H](CCc2ccc(C(F)(F)F)cc2)NC(=O)CN(C)C(=O)[C@H](Cc2ccc(Cl)cc2)N(C)C(=O)CN(C)C(=O)CN(C)C1=O [Compound 654] (cyclo([Aze][NMeF][NMeL][d(β3hA)][NMeA]I[Sar][Sar][NMePhe(4-Cl)][Sar][hPhe(4-CF3)])) . Output its IC50 only.
Solution: 110

Exercise: Given C=CC[C@@H]1NC(=O)[C@H](Cc2cccc(I)c2)NC(=O)CN(C)C(=O)[C@H](Cc2ccc(Cl)cc2)N(C)C(=O)CN(C)C(=O)CN(C)C(=O)[C@H]([C@@H](C)CC)NC(=O)[C@H](CC(C)C)N(C)C(=O)C[C@@H](C(=O)N2CCCC2)N(C)C(=O)[C@H](CC(C)C)NC(=O)C(C)(C)N(C)C1=O [Compound 1431] ([NMeL]I[Sar][Sar][NMePhe(4-Cl)][Sar][Phe(3-I)][AllylGly][NMeAib]L[NMeD]-Pyrrolidide; lactam N-11) , respond with its IC50.
Solution: 220

Exercise: Please look at this compound and report its IC50: CCCC[C@@H]1NC(=O)[C@H](Cc2cc(F)cc(I)c2)NC(=O)CN(C)C(=O)[C@H](Cc2ccc(OC)cc2)N(C)C(=O)[C@@H]2CCN2C(=O)[C@H](C)N(C)C(=O)[C@H]([C@@H](C)CC)NC(=O)[C@H](CC)N(C)C(=O)C[C@@H](C(=O)N2CCCCC2)N(C)C(=O)[C@H](CC(C)C)NC(=O)C(C)(C)N(C)C1=O [Compound 1226] ([NMeAbu]I[NMeA][Aze][NMeY](Me)[Sar][X51][Nle][NMeAib]L[NMeD]-Piperidide; lactam N-11)
Solution: 15
